measurementDescription: Determination of half life in PBS: cleavage of promoieties from capped model peptides
Format: physicochemical
experimentalContext: compound drawn; stated after the PBS tables; read-out: Half life for cleavage (converted)
Experimental: Determination Of half Life in PBS Polypeptides GIVEQAA-NH2 (SEQ ID NO: 57) and […] […] The promoiety capped model peptide was dissolved at 1 mg/mL concentration in PBS and the solution was incubated at 37° C. in a water bath. […] RP-HPLC was used to monitor the cleavage reactions and the cleavage rates were quantitatively studied by measuring the peak areas of the promoiety capped and released model peptides. […] The rate of cleavage was determined for the respective promoiety capped model peptides. […]
quantity: half-life at 1 mg/mL (days)

INSERT INTO results (smiles, quantity, number) VALUES
  ('Cc1cc(C(=O)O)cc(CN)c1C(=O)NCCc1ccc(N)cc1', 'half-life at 1 mg/mL', 32.5);
